Parameter Ksv (I^-), Stern Volmer quenching constant: see the listing below.
Assay: In vitro fluorescence quenching by I^- (Stern-Volmer)
Assay type: physicochemical
Conditions: Table 4
Response body: numeric value in M⁻¹, unit text excluded.

{"columns": ["COMPOUND", "REPORTED"],
 "data": [
  ["C[n+]1c(-c2ccccc2)ccc2cc3ccc(-c4ccccc4)nc3cc21 [Compound VII]", 46],
  ["CN(C)c1ccc2cc3ccc(N(C)C)cc3[n+](C)c2c1 [X, 10-methyl acridinium orange]", 30],
  ["N=c1ccc2c(-c3ccccc3C(=O)O)c3ccc(N)cc3oc-2c1 [III, rhodamine-110, reference compound]", 40],
  ["Nc1ncnc2c1nc([O-])c1cccc[n+]12 [II]", 70],
  ["[O-]c1nc2c(N[C@@H]3O[C@H](CO)[C@@H](O)[C@H]3O)ncnc2[n+]2ccccc12 [I]", 60],
  ["O=c1ccc2nc3ccc(O)cc3oc-2c1 [VIII, resorufin, reference compound]", 76]
]}

Q) Report Ksv (I^-), Stern Volmer quenching constant, nothing else, for this compound: Cc1cc2cc3cc(C)c(N)cc3[n+](C)c2cc1N [IX, 10-methyl acridinium yellow]
A) 90

Q) Report Ksv (I^-), Stern Volmer quenching constant, nothing else, for this compound: Nc1ccc2nc3ccc(N)cc3[n+](-c3ccccc3)c2c1 [XIII, phenosafranine, reference compound]
A) 33

Q) Report Ksv (I^-), Stern Volmer quenching constant, nothing else, for this compound: Nc1c2ccccc2[n+](CCCS(=O)(=O)[O-])c2ccccc12 [XII, 9-amino-10-(3-sulfopropys) acridinium]
A) 253
